tested on: PriA–SSB C-terminal tail interaction (Klebsiella pneumoniae); test: blocks PriA binding to SSB C-terminal tail, primary screen, biochemical, AlphaScreen (AID 1272365); conditions: AlphaScreen SSBct-PriA binding, biotinylated peptide; at 33 µM, stronger effect = higher value;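 also: plate controls were negative control peptide for no effect and reference peptide for full effect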
Among all 430,000 compounds or so, about 2,600 (0.6%) were called active. This excerpt belongs to a sample that is enriched for actives.
Reported inhibition is given for each of the following compounds.
Readout Name: inhibition (%)

O=C(c1ccccn1)N1CC(N2C(=O)CCC2=O)C1 ... -11
CC(C)C(=NNC(=O)Nc1ccccc1)c1ccccc1 ... -2.11
O=[N+]([O-])c1ccccc1NCc1ccccc1Cl ... -2.79
CCC1SC(=S)N(C)C1=O (stereo unspecified) ... -17
O=C(COC(=O)c1cccc(I)c1)c1ccc(-n2nncc2-c2ccccc2)cc1 ... -4
CCOC(=O)N1CCN(C(=O)Cn2nc(C(F)(F)F)n(C)c2=O)CC1 ... 2

* * *

tested on: PriA–SSB C-terminal tail interaction (Klebsiella pneumoniae); assay: blocks PriA binding to SSB C-terminal tail, primary screen, biochemical, AlphaScreen (AID 1272365); conditions: AlphaScreen SSBct-PriA binding, biotinylated peptide; at 33 µM, stronger effect = higher value;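 also: plate controls were negative control peptide for no effect and reference peptide for full effect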
Among all 430,000 compounds or so, about 2,600 (0.6%) were called active. The list comes from a sample in which actives are over-represented; it also holds close analogues and randomly drawn compounds.
Reported inhibition is given for each of the following compounds.
Readout Name: inhibition (%)

C=CCn1c(SCC(=O)N2CCOCC2)nc2scc(-c3ccccc3Cl)c2c1=O ... -1
COc1ccc(CC2(C)OC(c3ccc(C(C)(C)C)cc3)=NN2C(C)=O)cc1 (stereo unspecified) ... 62.5
CC(=O)N1N=C(c2ccncc2)OC1(Cc1ccccc1)Cc1ccccc1 ... -8.22
COc1ccc(OC)c(C(=O)Nc2nnc(Cc3ccc(Cl)s3)o2)c1 ... -12
O=C(NNC(=O)c1ccccc1[N+](=O)[O-])Nc1ccccc1C(F)(F)F ... -2.15
O=C(NCCCn1ccnc1)c1cc2c(s1)CCCC2 ... 44.7
O=C(O)c1cc(Br)cs1 ... -5
CC(=O)Nc1ccc(OCC(O)CN(c2ccc(C)cc2)S(C)(=O)=O)cc1 (stereo unspecified) ... -18
CCc1cc(=O)[nH]c2nnc(SCC#N)n12 ... -14
O=S(=O)(NCC1(CO)CC1)c1cccc(Cl)c1 ... -9
N#CCCSc1ccccc1NC(=O)c1ccc([N+](=O)[O-])o1 ... -9

* * *

system: PriA–SSB C-terminal tail interaction (Klebsiella pneumoniae); experiment: blocks PriA binding to SSB C-terminal tail, primary screen, biochemical, AlphaScreen (AID 1272365); details: AlphaScreen SSBct-PriA binding, biotinylated peptide; at 33 µM, stronger effect = higher value;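 also: plate controls were negative control peptide for no effect and reference peptide for full effect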
Among all 430,000 compounds or so, about 2,600 (0.6%) were called active. The full list was thinned out, with actives kept by preference.
Readout Name: inhibition (%)

CCOc1ccc(NC(=O)CCS(=O)(=O)c2cccc3nsnc23)cc1 ... -12
Cc1nc(-c2cccs2)sc1CNC(=O)c1ccc(=O)[nH]c1 ... 5
CCOC(=O)CNC(=O)CSc1ccc2nnc(-c3cccnc3)n2n1 ... 2.63
CCOc1ccc(-c2cn(S(=O)(=O)c3cccc4nsnc34)nc2N)cc1 ... 40.5
Cc1c(N)nc(-c2ccccn2)nc1Cl ... 47.3
Cc1ccc(Cl)cc1-n1ccn(CC#N)c(=O)c1=O ... -5
COCCCNC(=O)C(=O)Nc1ccc(Cl)cn1 ... -18
Cc1ccccc1-n1c(O)c(C=CC=Nc2ccccc2)c(=O)[nH]c1=O ... 4.92
CCOc1ccc(N(CC)S(=O)(=O)c2cccc3nsnc23)cc1 ... 4.13
Cc1ccccc1NC(=O)CSc1ccc2nnc(-c3ccccn3)n2n1 ... -4.51
CCc1ccc2nc(Nc3nc4ccc(NC(C)=O)cc4s3)sc2c1 ... 2

These measurements were taken from PubChem BioAssay AID1272365.
